- PROTOCOL NOTES: GST conjugation of t-stilbene oxide with glutathione (HPLC)
- Type: biochemical
- APPLIED CONDITIONS: purified enzyme, 0.4 mM electrophilic substrate, 4 mM glutathione, 0.1 M MOPS pH 7.0
Parameter activity of enzyme with t-Stilbene Oxide: see the listing below.
EXPERIMENTAL READOUT: activity of enzyme with t-Stilbene Oxide (nmol/min/mg)

>  <MOLECULE>
ceb5.pk0051.f8: maize class III GST enzyme encoded by cDNA clone, expressed in E. coli (protein) MAGETKKGLVLLDFWVSPFGQRCRIALAEKGIAYEYSEQELLGGAKSDILLRSNPVHKKIPVLLHDGRPVCESLVILEYLEEAFPEASPRLLPDAAYARAQARFWAAYSDKVYKAGTRLWKLRGDARAQARAEIVQVVRNLDGELGDKAFFGGEAFGFVDVALVPFVPWLPSYERYGDFSVAEIAPRLAAWARRCAQRESVARTLHPPEKVDEFINLLKKTYGIE

>  <EXPERIMENTAL READOUT>
activity of enzyme with t-Stilbene Oxide

>  <RECORDED VALUE>
0.02

$$$$
>  <MOLECULE>
cs1.pk0010.c5: maize class I GST enzyme encoded by cDNA clone, expressed in E. coli (protein) MAAGLQVFGQPASTDVARVLTCLFEKKLEFELVRIDTFKTHHRLPEFIRLRDPNGQVTFKHGDKTLVDSRDICRYVCNQFPNYGNKSLYGSGALERASIEQWLQAEAQNFGPPSSALVFQLAFVPHLSHLGVRQDPAVIAENEDKLKQVLDVYDEILSKNEYLAGDEFTLADLSHLPNSHYIVNTERGRKLFTNKKNVAKWYDRLSKRETWVQVVKMQKEHPGAFK

>  <EXPERIMENTAL READOUT>
activity of enzyme with t-Stilbene Oxide

>  <RECORDED VALUE>
0.00

$$$$
>  <MOLECULE>
ceb5.pk0049.a11: maize class III GST enzyme encoded by cDNA clone, expressed in E. coli (protein) MAEEKKQGLQLLDFWVSPFGQRCRIALDEKGLAYEYLEQDLRNKSELLLRANPVHKKIPVLLHDGRPVCESLVIVQYLDEAFPEAAPALLPADPYARAQARFWADYVDKKLYDCGTRLWKLKGDGQAQARAEMVEILRTLEGALGDGPFFGGDALGFVDVALVPFTSWFLAYDRFGGVSVEKECPRLAAWAKRCAERPSVAKNLYPPEKVYDFVCGMKKRLGIE

>  <EXPERIMENTAL READOUT>
activity of enzyme with t-Stilbene Oxide

>  <RECORDED VALUE>
0.01

$$$$
>  <MOLECULE>
ceb1.pk0017.a5: maize class I GST enzyme encoded by cDNA clone, expressed in E. coli (protein) MAAPVTVYGPMLSPAVARVAACLLEKDVPFQIEPVDMSKGEHKSPSFLKLQPFGQVPAFKDHLTTVFESRAICRYICDQYADSGNQALFGKKEDGAVGRAAIEQWIESEGQSFNPPSLAIIFQLAFAPMMGRTTDLAVVEQNEAKLAKVLDVYDQRLGESQYFAGDDFSPGRPCALAQCRFPCEQNQQGWLDHREKESC

>  <EXPERIMENTAL READOUT>
activity of enzyme with t-Stilbene Oxide

>  <RECORDED VALUE>
0.00

$$$$

These entries and their values trace back to patent US6096504A.
